# protocol details: NCI Yeast Anticancer Drug Screen. Data for the bub3 strain (AID 167)
# measurement parameters: S. cerevisiae bub3 mutant strain, at 50.0 µM, hits give high values
The panel holds about 79,000 compounds, 15% with a hit somewhere; the sample as a whole holds those more often.
readout label: growth inhibition (%)
Numbers only, in %.

Some compounds with known growth inhibition results, for comparison:
Consider the compound CC1(C)C2CCC1(C)C1(C2)OCCS1 (stereo not drawn) and give its measured growth inhibition.
1.05

Consider the compound CCCC(=O)CC(=O)c1ccccc1 and give its measured growth inhibition.
5.85

Consider the compound C=COC(=O)C(C)(C)C and give its measured growth inhibition.
-0.45

Consider the compound Cc1cc2nc(C)c(C)nc2cc1C and give its measured growth inhibition.
-25.7

Consider the compound COC1=C(OC)C(=O)C(SC/C=C(\C)CCCC(C)CCCC(C)CCCC(C)C)=CC1=O (stereo not drawn) and give its measured growth inhibition.
-52.6

State recorded growth inhibition for all listed compounds.
1. CC(CO)(CO)C(=O)O
2. CC(=O)Nc1ccc(O)c(C)c1
3. Clc1cccc(Cl)c1C1CSc2ccccc2N=C1c1ccccc1 (stereo not drawn)
4. CCOS(=O)(=O)c1ccc([N+](=O)[O-])cc1
5. CCN(CC)CCCC(C)NC(=S)N/N=C(\C)c1ccccn1 (stereo not drawn)
6. O=S(=O)(O)c1cccc2cccnc12

[-14, -14.8, -0.9, 5.2, 29.1, 10.4]

State recorded growth inhibition for all listed compounds.
1. CCOP(=O)(OCC)/C(=C\N1C(=O)CC(=O)NC1=S)C(=O)OC
2. Nc1ccc(F)c(Cl)c1F

1: -6.45; 2: -1.75

---

# protocol details: NCI Yeast Anticancer Drug Screen. Data for the mlh1 rad18 strain (AID 175)
# measurement parameters: S. cerevisiae mlh1 rad18 strain growth inhibition; at 50.0 µM; hits give high values
Compounds without any hit were thinned out: in the full panel of roughly 79,000, 15% have a hit.
readout label: growth inhibition (%)
One number for each entry, in %.

Consider the compound O=S(=O)(c1ccc(NC(=S)NCc2cccnc2)cc1)N1CCCCC1 and give its measured growth inhibition.
22.2

State recorded growth inhibition for all listed compounds.
1. O=CNCCc1ccccc1
2. C=CCc1cc(OC)c(OC)c(OC)c1
3. COC(=O)c1cccc([N+](=O)[O-])c1
4. COc1cc(-c2ccc(NC(=O)CC(C)=O)c(OC)c2)ccc1NC(=O)CC(C)=O
5. CCCCCCCCCCCCSC1=C(Cl)C(=O)C(OC)=C(OC)C1=O
6. CCNc1ncnc2[nH]ncc12
7. Clc1cccc(Cl)c1C1CSc2ccccc2N=C1c1ccccc1 (stereo not drawn)
8. COc1ccc(Nc2cc(Cl)ccc2C(=O)O)cn1

1: 2.35; 2: -4; 3: -9.9; 4: -14; 5: 38; 6: -5.3; 7: 3.65; 8: -4.55

---

# protocol details: NCI Yeast Anticancer Drug Screen. Data for the mlh1 rad18 strain (AID 175)
# measurement parameters: S. cerevisiae mlh1 rad18 strain growth inhibition; at 50.0 µM; hits give high values
About 79,000 compounds went through this panel and 15% of them were active in at least one assay; those are over-represented in the sample as a whole. The source made the active and inactive calls. Rule as the data show it: active = growth inhibition above about 70%; inactive = the rest.
readout label: growth inhibition

Some compounds with known growth inhibition results, for comparison:
Consider the compound O=S(=O)(O)c1cccnc1 and give its measured growth inhibition.
15.8% (inactive)

Consider the compound O=C1NC(=O)/C(=C\c2ccncc2)N1 and give its measured growth inhibition.
-56.5% (inactive)

Consider the compound Cc1ccc(S(=O)(=O)NC(=O)NCCSSCCNC(=O)NS(=O)(=O)c2ccc(C)cc2)cc1 and give its measured growth inhibition.
7.95% (inactive)

Consider the compound Oc1ccc2ccccc2c1CN1CCOCC1 and give its measured growth inhibition.
19% (inactive)

Consider the compound O=[N+]([O-])c1ccc2[nH]c(=S)n(/C=C(/c3ccc(Cl)cc3Cl)S(=O)(=O)Cc3ccc(Cl)cc3Cl)c2c1 and give its measured growth inhibition.
-13.1% (inactive)

Consider the compound CC(C)(C)[Si](C)(C)OCC1OC(n2cnc3c(N)ncnc32)CC1OS(C)(=O)=O (stereo unspecified) and give its measured growth inhibition.
0.5% (inactive)

State recorded growth inhibition for all listed compounds.
1. N#CC1(O)CCCCC1
2. O=C(CCCl)OCCOc1ccccc1
3. CN(C)c1ccc(O)c2c1CC1CC3C(N(C)C)C(=O)C(C(N)=O)=C(O)C3(O)C(=O)C1=C2O (stereo unspecified)
4. O=C(OCC1CCCO1)c1ccc([N+](=O)[O-])cc1 (stereo unspecified)
5. C=CC(C)C(C)(C)O (stereo unspecified)
6. Nc1nc2nnc(-c3ccccc3)c(-c3ccccc3)n2n1

["28.4% (inactive)", "6.55% (inactive)", "32.9% (inactive)", "12.3% (inactive)", "-2.4% (inactive)", "-8.8% (inactive)"]

State recorded growth inhibition for all listed compounds.
1. C/C(Cc1ccccc1)=N\O
2. C1Cc2onc(-c3noc4c3CCC4)c2C1

7.25% (inactive)
-14.6% (inactive)

State recorded growth inhibition for all listed compounds.
1. CN(C)c1ccc2c(N(C)C)cc(N(C)C)nc2c1
2. Nc1c(Br)cc(O)c2c1C(=O)c1ccccc1C2=O
3. COc1cc(OC)c(NC(=O)C(Sc2nc(C)cc(C)c2C#N)c2ccccc2)cc1Cl (stereo unspecified)
4. COc1c(CNC(=O)CCl)cc2[nH]c(C)cc2c1CNC(=O)CCl
5. CCCC(OC(C)=O)c1ccc2c(c1)OCO2 (stereo unspecified)
6. CN=S(=O)(OCCCCCOS(=O)(=NC)c1ccc(C)cc1)c1ccc(C)cc1 (stereo unspecified)
7. CC(c1ccccc1)N1C(=O)CSC1=S (stereo unspecified)
8. CC(=O)Oc1c(Cl)cccc1-c1ccccc1

1. -12% (inactive)
2. 10.5% (inactive)
3. 5.9% (inactive)
4. -25.9% (inactive)
5. 29.2% (inactive)
6. -34.9% (inactive)
7. 52.1% (inactive)
8. 13.4% (inactive)

State recorded growth inhibition for all listed compounds.
1. Nc1cc2c(cc1Cl)C(=O)c1ccccc1C2=O
2. CCC(=O)C1C(=O)c2ccccc2C1=O

1: 1.35% (inactive); 2: 20.4% (inactive)

State recorded growth inhibition for all listed compounds.
1. O=C(O)c1ccccc1Cc1ccc2c(c1)CCCC2
2. C=C(OC(C)=O)c1ccccc1

1: 47.3% (inactive); 2: 0.05% (inactive)

---

# protocol details: NCI Yeast Anticancer Drug Screen. Data for the rad50 strain (AID 155);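 further: 0% = growth of vehicle-only cultures of the same strain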
# measurement parameters: S. cerevisiae rad50 strain growth inhibition; at 50.0 µM; hits give high values
# Description: Growth inhibition of yeast strains with defined genetic alterations is measured as a screen for potential anti-cancer activity. Selected strains with alterations in DNA damage repair or cell cycle control were exposed to compounds and growth inhibition was measured relative to vehicle treated controls. The strain used in this assay is rad50
This is part of a sample that, as a whole, favours compounds with a hit. Of some 79,000 tested, about 15% had one in any assay.
readout label: growth inhibition (%)
Give bare numbers, in %.

Consider the compound O=C(O)c1cc(I)ccc1O and give its measured growth inhibition.
-6.65

Consider the compound COc1cc(C(=O)N2CCN(c3ccccc3)CC2)c2ccccc2n1 and give its measured growth inhibition.
-3.8

Consider the compound Ic1cccs1 and give its measured growth inhibition.
34.9

Consider the compound CC1=CC(=Nc2ccc(N(C)C)cc2)C=C(C)C1=O and give its measured growth inhibition.
-14.5

Consider the compound Cc1c(Cl)cccc1NC(=S)NC(=O)c1ccccc1 and give its measured growth inhibition.
23.7

State recorded growth inhibition for all listed compounds.
1. CC(=O)Nc1ccc(C(=O)c2ccc(S(=O)(=O)Nc3ccccc3)cc2)cc1
2. Nc1nc2nnc(-c3ccccc3)c(-c3ccccc3)n2n1
3. CCCCCCCCCCCCSC1=C(Cl)C(=O)C(OC)=C(OC)C1=O

1: 6.5; 2: 12.8; 3: 23.3

State recorded growth inhibition for all listed compounds.
1. Cn1c(=O)c2nc3c(=O)n(C)c(=O)n(C)c3nc2n(C)c1=O
2. CC(C)C(=O)OCCOc1ccc(C(C)(C)C)cc1
3. Clc1ccc(-c2noc(/C=C\c3ccccc3)n2)cc1
4. Cc1[nH]n(-c2ccccc2)c(=O)c1C=NC(=S)C(N)=S

1: -8; 2: 6.35; 3: 12.7; 4: -24.4

---

# protocol details: NCI Yeast Anticancer Drug Screen. Data for the mec2-1 strain (AID 157)
# measurement parameters: S. cerevisiae mec2-1 strain, at 50.0 µM, hits give high values
Compounds without any hit were thinned out: in the full panel of roughly 79,000, 15% have a hit.
Kindly supply the reported growth inhibition values for the records listed here.
One number for each entry, in %.

Some compounds with known growth inhibition results, for comparison:
Consider the compound Cn1c(=O)c2nc3c(=O)n(C)c(=O)n(C)c3nc2n(C)c1=O and give its measured growth inhibition.
-11.2

Consider the compound CCCCOC(=O)c1ccccc1O and give its measured growth inhibition.
-0.8

Consider the compound C=C(C)COc1ccc(C(C)(C)C)cc1 and give its measured growth inhibition.
16.7

State recorded growth inhibition for all listed compounds.
1. CC(=O)OCC1CCC(COC(C)=O)CC1 (configuration not stated)
2. CC(=O)NNC(=S)N/C=C/c1c(C)ccc([N+](=O)[O-])c1[N+](=O)[O-]
3. CC(C)NC(=O)OCc1c(COC(=O)NC(C)C)c(-c2ccc(Cl)cc2)n2c1CCC2
4. Cn1c(=O)c2[nH]c(CC(=O)O)nc2n(C)c1=O
5. N=C(N)c1nn(C2OC(CO)C(O)C2O)c2nc[nH]c(=O)c12 (configuration not stated)
6. c1cc(CNCCNCc2ccncc2)ccn1
7. C=COC(=O)CCOCC(CC)CCCC (configuration not stated)

1. -30.6
2. -35
3. -23.7
4. 11
5. -9.5
6. -48
7. -15.1

State recorded growth inhibition for all listed compounds.
1. CN(C)c1ccc2c(N(C)C)cc(N(C)C)nc2c1
2. CC(=O)/C(C)=N\OC(=O)Nc1ccccc1

[-4.3, -8.2]
